PROTOCOL TEXT: Her2 expression decrease, cell viability multiplex – SKBR3 breast tumor cells, AlphaScreen, ATP viability, primary screen (AID 461);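 note: percent of carrier control wells set as 100% viability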
CONDITION: SKBR3 Her2 protein level, 18-24 h, measured here: SKBR3 viability, ATP luminescence, at 10 µM
Hi there, I'd appreciate the recorded viability for every entry that follows.
Expressed in %, but write only the number.

Look up viability of CC(C)(O)C#Cc1ccc(C(=O)N2CCN(C(=O)c3ccco3)CC2)cc1 and report it.
102

Look up viability of CCOc1ccc(NC(=O)CN2C(=O)C3CCCN3C2=O)cc1 (stereo not drawn) and report it.
85

Look up viability of COCCNC(=O)c1cc(-c2cccs2)on1 and report it.
97

Look up viability of Nc1nc2n(n1)C(c1cccc(Br)c1)CC(c1ccc(F)cc1)N2 (stereo not drawn) and report it.
85

Look up viability of CCN1CCN(C(=O)C2CCN(C(=O)c3cc4sccc4n3CC)CC2)CC1 and report it.
104

Look up viability of O=C(Nc1ccncc1)C1CCCN(S(=O)(=O)c2cccc3cccnc23)C1 (stereo not drawn) and report it.
84.5

Look up viability of CCCCN(CC)CCNC(=O)c1cc2c(C)nc3ccccc3c2o1 and report it.
91

Look up viability of CC1CCN(C(=O)CSc2nc3c(cnn3-c3ccccc3)c(=O)[nH]2)CC1 and report it.
82.5

Look up viability of CCOC(=O)c1cccc(NC2c3ccccc3C(=O)N2Cc2ccco2)c1 (stereo not drawn) and report it.
98.5

Look up viability of COc1cc2c(cc1OC)-c1nnc(C)n1C1(CCCC1)C2 and report it.
87

Look up viability of CC(C)CCSc1nc2c(c(=O)[nH]c(=O)n2C)n1CCCc1ccccc1 and report it.
87.5

Look up viability of Cc1ccc(-c2noc(CN3CCN(c4ccccc4F)CC3)n2)cc1 and report it.
89.5

Look up viability of COCCOC(=O)C1=C(C)N=c2s/c(=C\c3cccs3)c(=O)n2C1c1cccs1 (stereo not drawn) and report it.
91.5

Look up viability of Cc1ccc(S(=O)(=O)C(C#N)c2nc3ccccc3nc2N2CCCCC2)cc1 (stereo not drawn) and report it.
124

Look up viability of CC(=O)OCCNc1cc(N2CCN(C)CC2)c2noc3c2c1C(=O)c1ccccc1-3 and report it.
83

Look up viability of COc1ccc(-c2nc(CCNC(=O)c3ccco3)cs2)cc1OC and report it.
96.5

Look up viability of CC1CCc2nn(CC(=O)NCCCN3CCOCC3)cc2C1 (stereo not drawn) and report it.
99.5

Look up viability of CCOc1ccc(N(CC(=O)Nc2ccc(C)c(C)c2)S(=O)(=O)c2c(C)noc2C)cc1 and report it.
101

Look up viability of CCC1CCCCN1CCNS(=O)(=O)c1ccc2c(c1)oc(=O)n2C (stereo not drawn) and report it.
91.5

Look up viability of c1ccc(CN2CCN(CCCNc3ccc4nnc(-c5ccccc5)n4n3)CC2)cc1 and report it.
83

Look up viability of COc1ccc(NC(=O)CSc2nc3c(c(=O)n2-c2ccc(F)cc2)SCC3)cc1 and report it.
100

Look up viability of Cn1cc(Cl)c(C(=O)N(Cc2ccccc2)c2ccccn2)n1 and report it.
98

Look up viability of O=C(Nc1cccc(F)c1)C1C2C=CC3(CN(CCCN4CCOCC4)C(=O)C13)O2 (stereo not drawn) and report it.
96

Look up viability of CCc1nc2sc(C)c(C)c2c(=O)n1CCO and report it.
106

Look up viability of CCC1CCCCN1C(=O)CSc1nnc(-c2ccc(OC)cc2)o1 (stereo not drawn) and report it.
98

Look up viability of Cc1onc(-c2c(Cl)cccc2Cl)c1C(=O)NCC1CCCO1 (stereo not drawn) and report it.
111

Look up viability of Fc1ccc(-c2nnc3ccc(N4CCCC4)nn23)cc1 and report it.
80

Look up viability of CN(CCCNC(=O)c1cn(C)c2ccc(S(=O)(=O)N(C)C)cc2c1=O)c1ccccc1 and report it.
85.5

* * *

Hi there, I'd appreciate the recorded viability for every entry that follows.
PROTOCOL TEXT: MRP1 drug-resistance reversers in H69AR cells – cell-based, doxorubicin co-treatment, pilot screen (AID 601)
CONDITION: H69AR cells, CellTiter-Glo, 72 h; compound alone cytotoxicity; at 10 µM

Look up viability of Cc1ccccc1-c1nc(CN2CCC(C(=O)N3CCC(C(N)=O)CC3)CC2)c(C)o1 and report it.
89.5%

Look up viability of CC1Cc2nc(SCC(N)=O)n(Cc3ccccc3)c(=O)c2S1 (stereo not given) and report it.
88.3%

Look up viability of Cn1c(=O)[nH]c(=O)c2c1nc(N1CCCCC1)n2CCSc1ncccn1 and report it.
88.8%

Look up viability of CCC(C)C(=O)Nc1nc2c(s1)C(=O)CC(C)(C)C2 (stereo not given) and report it.
89.5%

Look up viability of Cc1nc2sc(C(c3cccs3)N3CCOCC3)c(O)n2n1 (stereo not given) and report it.
88.6%

* * *

PROTOCOL TEXT: S. cerevisiae growth inhibition in permissive medium (OD615), pilot counter-assay for S. cerevisiae lifespan shortening project, permissive growth control (AID 705)
CONDITION: OD615, 24 h, at 10 µM
Calls of active or inactive are those of the source.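 Rule for the calls: active = growth inhibition above 25% in both replicates, a cutoff set 3 SD above the mean; inconclusive = above 25% in only one replicate; inactive = the rest.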
Valid outcomes are listed here; reply with one: active, inactive

Called result for CCC(=O)Nc1cccc(Br)c1
inactive

Called result for C=CCn1c(=O)c(C(=O)Nc2ccccc2OC)c(O)c2ccccc21
inactive

Called result for O=C(Nc1nc(-c2nc3ccccc3s2)cs1)C1COc2ccccc2O1 (stereo unspecified)
inactive

Called result for COc1ccc(-c2nc(CS(=O)CC(=O)NCc3ccccn3)c(C)o2)cc1 (stereo unspecified)
inactive

Called result for CC(C)(C)c1ccc(S(=O)(=O)N2CCN(CCC#N)CC2)cc1
inactive

Called result for CCN(CC)S(=O)(=O)c1cc(C(=O)Oc2ccccc2OC)ccc1OC
inactive

Called result for O=C1CCCC(O)=C1C1C2=C(CCCC2=O)Oc2ccccc21 (stereo unspecified)
inactive

Called result for COc1ccc(NC(=O)C2CCCN2S(=O)(=O)c2cccc3cccnc23)c(OC)c1 (stereo unspecified)
active

Called result for Cc1cc(N2CCOCC2)c2c(N)c(Br)cc(C)c2n1
inactive

Called result for CC1=C(C(=O)Nc2cccnc2)C(c2ccc(C(C)C)cc2)n2ncnc2N1 (stereo unspecified)
inactive

Called result for COc1ccc(C(=O)c2coc3ccc(O)c(CN4CCCCC4)c23)cc1
inactive

* * *

PROTOCOL TEXT: RAM signaling pathway blockade in yeast – S. cerevisiae, Pdr1DBD-CYC8 efflux-inhibited sensitized strain, primary screen (AID 1298);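 note: 0% = DMSO untreated cells without growth and 100% = 10 µM 1-NA-PP1 full growth; higher means more yeast growth rescued from 5-FOA killing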
CONDITION: S. cerevisiae cbk1-as DSE1-URA3 strain, 5-FOA growth OD615, 2 d; at 50 µM; stronger effect = higher value
READOUT NAME: RAM network inhibition (%)
Expressed in %, but write only the number.

Look up RAM network inhibition of CCN(CC)c1ccc(NC(=O)c2nc3nc(C)cc(C(F)F)n3n2)cc1 and report it.
1.16

Look up RAM network inhibition of N#CCn1nnc(-c2ccc3c(c2)OCO3)n1 and report it.
0.16

Look up RAM network inhibition of CCn1c(=O)cc(OCC(=O)Nc2nc(C)cs2)c2ccccc21 and report it.
2.84

Look up RAM network inhibition of CC(C)c1nnc(NC(=O)C2CCCCC2)s1 and report it.
-2.03

Look up RAM network inhibition of CCOC(=O)CSC(CC)C(=O)Nc1nnc(CC)s1 (configuration not stated) and report it.
-0.27

Look up RAM network inhibition of COc1ccc(-c2nc(CSCC(=O)NCc3ccc4c(c3)OCO4)c(C)o2)cc1OC and report it.
6.3

Look up RAM network inhibition of CSc1ccc(Cl)c(C(=O)NCc2ccco2)c1 and report it.
5.31

Look up RAM network inhibition of Cc1nc2sc(C(c3cccs3)N3CC(C)CC(C)C3)c(O)n2n1 (configuration not stated) and report it.
5.64

Look up RAM network inhibition of Cc1nc2ccccc2c2oc(C(=O)N3CCc4ccccc4C3)cc12 and report it.
3.91

Look up RAM network inhibition of COCCN1C(=O)c2oc3ccccc3c(=O)c2C1c1ccc(OC)c(OC)c1 (configuration not stated) and report it.
4.46

Look up RAM network inhibition of O=C(CCn1c(=O)oc2ccccc21)NCCN1CCOCC1 and report it.
4.16

Look up RAM network inhibition of O=C(CCNS(=O)(=O)c1cccc2nsnc12)Nc1ccc2c(c1)OCCO2 and report it.
4.76

Look up RAM network inhibition of COC1CCCCC1Nc1cccc(SC)c1 (configuration not stated) and report it.
7.2

Look up RAM network inhibition of Cn1c(NC(=O)c2ccccc2F)cc(=O)n(C)c1=O and report it.
-1.63

Look up RAM network inhibition of O=C1CC(Nc2ccc(N3CCOCC3)cc2)C(=O)N1c1cccc(C(F)(F)F)c1 (configuration not stated) and report it.
5.28

Look up RAM network inhibition of Cc1cccc(C)c1OCC(O)Cn1ccnc1C (configuration not stated) and report it.
-0.1

Look up RAM network inhibition of CC1CCCCN1CCNC(=O)C1CCN(S(=O)(=O)c2cccc3cccnc23)CC1 (configuration not stated) and report it.
6.99

Look up RAM network inhibition of COc1ccc(NC(=O)CSc2nnc(-c3ccccc3)n2N)cc1 and report it.
3.84

Look up RAM network inhibition of Cc1nnc(SCCn2c(N3CCCC(C)C3)nc3c2c(=O)n(C)c(=O)n3C)s1 (configuration not stated) and report it.
1.84

Look up RAM network inhibition of CCOC(=O)c1[nH]c(C)c(C(=O)NC)c1C and report it.
-1.66

Look up RAM network inhibition of COc1cccc(-c2nc3n(n2)C(c2ccccc2Cl)C(C(N)=O)=C(C)N3)c1 (configuration not stated) and report it.
3.45

Look up RAM network inhibition of CCCCCn1c(CCNC(=O)CCC)nc2ccccc21 and report it.
2.6

These entries and their values trace back to PubChem BioAssay.
